Please go through the items and note down their inhibition at 1 µM.
- target.or.test.system: INaL v1.6 (late sodium current, HEK-293 cells expressing recombinant sodium channels) (Homo sapiens)
- Construct: expressed in transfected cells; host or cells: HEK-293
- Sequence (Q9UQD0 whole entry): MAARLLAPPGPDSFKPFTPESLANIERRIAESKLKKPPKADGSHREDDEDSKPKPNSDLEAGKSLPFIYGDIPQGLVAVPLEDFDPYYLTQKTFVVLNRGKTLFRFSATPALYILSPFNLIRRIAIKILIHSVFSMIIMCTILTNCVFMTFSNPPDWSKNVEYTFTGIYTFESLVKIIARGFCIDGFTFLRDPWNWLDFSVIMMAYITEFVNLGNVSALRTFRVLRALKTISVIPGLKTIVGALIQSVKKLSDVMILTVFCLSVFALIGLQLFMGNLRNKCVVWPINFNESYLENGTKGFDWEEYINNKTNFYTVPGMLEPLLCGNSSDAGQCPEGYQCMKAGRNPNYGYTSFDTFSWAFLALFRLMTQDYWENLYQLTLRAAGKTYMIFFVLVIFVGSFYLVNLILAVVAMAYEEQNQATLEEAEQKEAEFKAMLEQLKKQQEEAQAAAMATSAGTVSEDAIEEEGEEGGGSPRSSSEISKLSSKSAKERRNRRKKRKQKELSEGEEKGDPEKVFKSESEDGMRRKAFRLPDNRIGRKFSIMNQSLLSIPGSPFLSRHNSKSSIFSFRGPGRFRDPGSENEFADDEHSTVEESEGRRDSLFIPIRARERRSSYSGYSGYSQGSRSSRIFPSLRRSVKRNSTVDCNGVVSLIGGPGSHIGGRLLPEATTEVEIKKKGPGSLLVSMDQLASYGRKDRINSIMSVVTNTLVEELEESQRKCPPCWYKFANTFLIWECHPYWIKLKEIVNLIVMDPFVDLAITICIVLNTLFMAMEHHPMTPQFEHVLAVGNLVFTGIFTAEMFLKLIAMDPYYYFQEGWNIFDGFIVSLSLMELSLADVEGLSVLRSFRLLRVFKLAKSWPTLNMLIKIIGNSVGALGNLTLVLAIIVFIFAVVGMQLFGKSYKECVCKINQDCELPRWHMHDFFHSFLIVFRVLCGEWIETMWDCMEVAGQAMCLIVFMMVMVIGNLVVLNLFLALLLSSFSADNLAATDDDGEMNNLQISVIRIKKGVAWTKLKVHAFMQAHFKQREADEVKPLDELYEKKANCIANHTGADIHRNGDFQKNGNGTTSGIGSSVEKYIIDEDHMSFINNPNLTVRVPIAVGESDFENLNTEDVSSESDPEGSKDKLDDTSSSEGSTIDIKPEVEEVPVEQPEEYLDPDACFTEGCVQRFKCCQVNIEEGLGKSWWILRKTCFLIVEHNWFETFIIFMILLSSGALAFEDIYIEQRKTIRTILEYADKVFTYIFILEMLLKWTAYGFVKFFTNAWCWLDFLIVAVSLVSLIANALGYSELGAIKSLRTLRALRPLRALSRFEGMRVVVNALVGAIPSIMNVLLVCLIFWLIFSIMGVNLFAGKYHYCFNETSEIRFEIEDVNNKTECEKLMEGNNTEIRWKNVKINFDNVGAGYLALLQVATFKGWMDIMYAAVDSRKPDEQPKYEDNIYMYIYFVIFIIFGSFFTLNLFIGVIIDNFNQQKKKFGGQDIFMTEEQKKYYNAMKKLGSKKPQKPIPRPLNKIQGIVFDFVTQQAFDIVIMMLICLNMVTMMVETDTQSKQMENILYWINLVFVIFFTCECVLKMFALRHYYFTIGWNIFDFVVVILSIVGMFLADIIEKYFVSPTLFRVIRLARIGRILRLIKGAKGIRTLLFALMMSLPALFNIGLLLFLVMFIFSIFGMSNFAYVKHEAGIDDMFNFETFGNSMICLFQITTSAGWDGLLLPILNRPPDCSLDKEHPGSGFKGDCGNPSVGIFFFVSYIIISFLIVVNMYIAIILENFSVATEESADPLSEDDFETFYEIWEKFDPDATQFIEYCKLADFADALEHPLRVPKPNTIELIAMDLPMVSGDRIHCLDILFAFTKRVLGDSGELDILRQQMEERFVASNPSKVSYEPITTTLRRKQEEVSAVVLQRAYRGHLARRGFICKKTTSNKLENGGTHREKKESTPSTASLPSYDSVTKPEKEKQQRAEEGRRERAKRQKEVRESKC
- protocol.summary: Inhibition of ATX-II evoked Nav late current (INaL), PatchXpress electrophysiology
- Format: cell-based
- test.parameters: HEK293, compound at 1 μM, late current evoked by ATX-II 300 nM

Which inhibition at 1 µM reading was recorded for the molecule Fc1cc(-c2cn3c(C(F)(F)F)nnc3cn2)cnc1OCC1CC1(F)F (stereo not shown) [Compound 29] ?
50 to 75%

Recorded inhibition at 1 µM for Fc1cc(-c2cn3c(C(F)(F)F)nnc3cn2)cnc1OC1CC(F)(F)C1(F)F (stereo not shown) [Compound 33] , please?
> 75%

Would you kindly share the measured inhibition at 1 µM for Fc1cc(-c2ccc3nnc(C(F)(F)F)n3n2)cnc1OCC1CC1(F)F (stereo not shown) [Compound 24] ?
50 to 75%

Recorded inhibition at 1 µM for Fc1cc(-c2ccc3nnc(C(F)F)n3n2)cnc1OCC1CC1(F)F (single isomer, unassigned) [21 (Isomer 1)] , please?
50 to 75%
